Target: Thromboxane-A synthase (Homo sapiens)
Sequence (P24557 whole entry): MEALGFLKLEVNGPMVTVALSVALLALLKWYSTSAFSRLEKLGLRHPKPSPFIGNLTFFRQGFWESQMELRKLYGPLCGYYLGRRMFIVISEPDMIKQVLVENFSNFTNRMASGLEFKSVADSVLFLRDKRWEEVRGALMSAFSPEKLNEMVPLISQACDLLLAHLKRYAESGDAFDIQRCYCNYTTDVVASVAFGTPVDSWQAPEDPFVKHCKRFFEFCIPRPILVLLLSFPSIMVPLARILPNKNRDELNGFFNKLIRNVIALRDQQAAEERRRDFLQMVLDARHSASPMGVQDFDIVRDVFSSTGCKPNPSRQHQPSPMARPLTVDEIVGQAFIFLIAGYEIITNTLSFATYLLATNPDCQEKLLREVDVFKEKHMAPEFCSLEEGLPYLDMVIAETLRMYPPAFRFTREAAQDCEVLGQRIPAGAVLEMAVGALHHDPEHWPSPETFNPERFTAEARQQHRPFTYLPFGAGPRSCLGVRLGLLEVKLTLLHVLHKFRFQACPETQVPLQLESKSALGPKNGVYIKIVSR
Test: In vitro TXA2 synthase antagonism through inhibition of collagen induced thromboxane-A2 production in human citreated whole blood
observed-property: IC50 (nM)

Cc1ccncc1-c1ccc(CO[C@@H]2CC[C@H](N3CCCCCC3)[C@H]2OC/C=C\CCC(=O)O)cc1
100

a: CCc1cnccc1-c1ccc(CO[C@@H]2CC[C@H](N3CCCCCC3)[C@H]2OC/C=C\CCC(=O)O)cc1
b: CCCc1ccncc1-c1ccc(CO[C@@H]2CC[C@H](N3CCCCCC3)[C@H]2OC/C=C\CCC(=O)O)cc1
Query: For this pair, a and b , which shows a numerically higher IC50? Reply briefly: the label of your chosen item.
Reply: a
